Readings of growth inhibition for the listed compounds
- Test system: DIPGX29 (H3.3 K27M diffuse intrinsic pontine glioma line)
- Test Description: growth inhibition (% activity, log2 RLU normalised to DMSO / staurosporine); higher = more growth inhibition
- Measurement Setup: 33 µM
Measure Name: growth inhibition (%)

INSERT INTO results (compound, assay_system, readout_unit, meas_value) VALUES
  ('Cc1ccccc1C(OCCN(C)C)c1ccccc1 (stereo not drawn)', 'DIPGX29', '%', -0.515),
  ('Cc1c(Nc2ncccc2C(=O)O)cccc1C(F)(F)F', 'DIPGX29', '%', 0.454),
  ('O=c1[nH]cc(F)c(=O)[nH]1', 'DIPGX29', '%', 5.88),
  ('C[C@H](CS)C(=O)N1CCC[C@H]1C(=O)O', 'DIPGX29', '%', 0.445),
  ('C=C1CCC(O)CC1=CC=C1CCCC2(C)C1CCC2C(C)CCCC(C)(C)O (stereo not drawn)', 'DIPGX29', '%', -0.0142),
  ('NCC(=O)CCC(=O)O', 'DIPGX29', '%', -0.565),
  ('CCN(CC)CCOCCOC(=O)C(CC)(CC)c1ccccc1', 'DIPGX29', '%', 7.78),
  ('COc1c(C)c2c(c(O)c1C/C=C(\C)CCC(=O)O)C(=O)OC2', 'DIPGX29', '%', 19.1),
  ('CN1CCC[C@@H]1CCO[C@](C)(c1ccccc1)c1ccc(Cl)cc1', 'DIPGX29', '%', 5.74),
  ('O=C(O)c1cc(=O)c2c(OCC(O)COc3cccc4oc(C(=O)O)cc(=O)c34)cccc2o1', 'DIPGX29', '%', -1.5),
  ('[I-].[K+]', 'DIPGX29', '%', -0.931),
  ('COc1ccc(CN(CCN(C)C)c2ccccn2)cc1', 'DIPGX29', '%', -4.36),
  ('Nc1c2ccccc2nc2ccccc12', 'DIPGX29', '%', 17.5);

---

- Test system: DIPGX9 (diffuse intrinsic pontine glioma line)
- Test Description: growth inhibition (% activity, log2 RLU normalised to DMSO / staurosporine); higher = more growth inhibition
- Measurement Setup: 33 µM
Measure Name: growth inhibition (%)

INSERT INTO results (molecule, measure_name, meas_value) VALUES
  ('Nc1ccn([C@@H]2O[C@H](CO)[C@@H](O)C2(F)F)c(=O)n1', 'growth inhibition', 20.2),
  ('CC(=O)O[C@]1(C(C)=O)CC[C@H]2[C@@H]3C[C@H](C)C4=CC(=O)C=C[C@]4(C)[C@@]3(F)[C@@H](O)C[C@@]21C', 'growth inhibition', 5.69),
  ('CCN1CCN(C(=O)NC(C(=O)NC2C(=O)N3C(C(=O)O)=C(CSc4nnnn4C)CSC23)c2ccc(O)cc2)C(=O)C1=O (centres undefined)', 'growth inhibition', -2.18),
  ('O=C(NC[C@H]1CN(c2ccc(N3CCOCC3=O)cc2)C(=O)O1)c1ccc(Cl)s1', 'growth inhibition', -1.03);

---

- Test system: SUDIPGXIII (diffuse intrinsic pontine glioma line)
- Test Description: growth inhibition (% activity, log2 RLU normalised to DMSO / staurosporine); higher = more growth inhibition
- Measurement Setup: 33 µM
Examples of molecules with documented growth inhibition follow.
Measure Name: growth inhibition (%)

INSERT INTO assay_data (molecule, assay_system, readout_unit, meas_value) VALUES
  ('CCCOc1ccc(C(=O)OCCN(CC)CC)cc1N', 'SUDIPGXIII', '%', 0.093),
  ('CN1CCC[C@H]1c1cccnc1', 'SUDIPGXIII', '%', 1.09),
  ('NC(=O)NO', 'SUDIPGXIII', '%', 1.21),
  ('OC(CCN1CCCC1)(c1ccccc1)C1CCCCC1 (centres undefined)', 'SUDIPGXIII', '%', -1.02),
  ('COC(=O)Nc1nc2cc(Sc3ccccc3)ccc2[nH]1', 'SUDIPGXIII', '%', 3.48),
  ('CCCCCCCCCCCCCCCCO', 'SUDIPGXIII', '%', 1.46),
  ('CC(C)n1c(/C=C/[C@@H](O)C[C@@H](O)CC(=O)O)c(-c2ccc(F)cc2)c2ccccc21', 'SUDIPGXIII', '%', 3.96),
  ('Nc1nc(O)c2ncn(CCC(CO)CO)c2n1', 'SUDIPGXIII', '%', 0.273),
  ('CCN1CCN(C(=O)N[C@@H](C(=O)N[C@@H]2C(=O)N3[C@@H]2SC(C)(C)[C@@H]3C(=O)O)c2ccccc2)C(=O)C1=O', 'SUDIPGXIII', '%', -11.8),
  ('CC/C(=C(\c1ccccc1)c1ccc(OCCN(C)C)cc1)c1ccccc1', 'SUDIPGXIII', '%', 2.99),
  ('COc1cc(C(=O)NS(=O)(=O)c2ccccc2C)ccc1Cc1cn(C)c2ccc(NC(=O)OC3CCCC3)cc12', 'SUDIPGXIII', '%', 0.405),
  ('CCCCOc1ccc(CC(=O)NO)cc1', 'SUDIPGXIII', '%', -0.824),
  ('COc1ccc(-c2nc3ccc(C4=NNC(=O)CC4C)cc3[nH]2)cc1 (centres undefined)', 'SUDIPGXIII', '%', 0.884),
  ('Cc1ccc(C(=O)C(C)CN2CCCCC2)cc1 (centres undefined)', 'SUDIPGXIII', '%', 0.909),
  ('CC(=O)Nc1ccccc1', 'SUDIPGXIII', '%', 0.153),
  ('O=c1[nH]c(=O)n([C@H]2C[C@H](O)[C@@H](CO)O2)cc1F', 'SUDIPGXIII', '%', 6.72),
  ('Cn1c(=O)c2[nH]cnc2n(C)c1=O', 'SUDIPGXIII', '%', -1.98),
  ('CN1CCC(OC(c2ccccc2)c2ccccc2)CC1', 'SUDIPGXIII', '%', -1.75),
  ('CN1[C@@H]2CC[C@H]1C[C@@H](OC(c1ccccc1)c1ccccc1)C2', 'SUDIPGXIII', '%', 0.606),
  ('CN(C)[C@@H](CCOc1cccc2ccccc12)c1ccccc1', 'SUDIPGXIII', '%', 0.415),
  ('O=C(Oc1ccccc1C(=O)O)c1ccccc1O', 'SUDIPGXIII', '%', -0.246),
  ('CCN1CCN(C(=O)NC(C(=O)NC2C(=O)N3C(C(=O)O)=C(CSc4nnnn4C)CSC23)c2ccc(O)cc2)C(=O)C1=O (centres undefined)', 'SUDIPGXIII', '%', -0.109),
  ('c1ccc(CN(CC2=NCCN2)c2ccccc2)cc1', 'SUDIPGXIII', '%', 0.969),
  ('Clc1ccc2nsnc2c1NC1=NCCN1', 'SUDIPGXIII', '%', -1.44);
